biological target: Protein cereblon/Tyrosine-protein kinase ABL1/Breakpoint cluster region protein (Homo sapiens, UniProt P00519+P11274+Q96SW2); assay: Protac activity at CRBN/BCR-ABL in human K562 cells assessed as increase in BCR-ABL degradation at 5 nM by Western blotting analysis; type: cell-based
Sequence (P00519 whole entry, looked up): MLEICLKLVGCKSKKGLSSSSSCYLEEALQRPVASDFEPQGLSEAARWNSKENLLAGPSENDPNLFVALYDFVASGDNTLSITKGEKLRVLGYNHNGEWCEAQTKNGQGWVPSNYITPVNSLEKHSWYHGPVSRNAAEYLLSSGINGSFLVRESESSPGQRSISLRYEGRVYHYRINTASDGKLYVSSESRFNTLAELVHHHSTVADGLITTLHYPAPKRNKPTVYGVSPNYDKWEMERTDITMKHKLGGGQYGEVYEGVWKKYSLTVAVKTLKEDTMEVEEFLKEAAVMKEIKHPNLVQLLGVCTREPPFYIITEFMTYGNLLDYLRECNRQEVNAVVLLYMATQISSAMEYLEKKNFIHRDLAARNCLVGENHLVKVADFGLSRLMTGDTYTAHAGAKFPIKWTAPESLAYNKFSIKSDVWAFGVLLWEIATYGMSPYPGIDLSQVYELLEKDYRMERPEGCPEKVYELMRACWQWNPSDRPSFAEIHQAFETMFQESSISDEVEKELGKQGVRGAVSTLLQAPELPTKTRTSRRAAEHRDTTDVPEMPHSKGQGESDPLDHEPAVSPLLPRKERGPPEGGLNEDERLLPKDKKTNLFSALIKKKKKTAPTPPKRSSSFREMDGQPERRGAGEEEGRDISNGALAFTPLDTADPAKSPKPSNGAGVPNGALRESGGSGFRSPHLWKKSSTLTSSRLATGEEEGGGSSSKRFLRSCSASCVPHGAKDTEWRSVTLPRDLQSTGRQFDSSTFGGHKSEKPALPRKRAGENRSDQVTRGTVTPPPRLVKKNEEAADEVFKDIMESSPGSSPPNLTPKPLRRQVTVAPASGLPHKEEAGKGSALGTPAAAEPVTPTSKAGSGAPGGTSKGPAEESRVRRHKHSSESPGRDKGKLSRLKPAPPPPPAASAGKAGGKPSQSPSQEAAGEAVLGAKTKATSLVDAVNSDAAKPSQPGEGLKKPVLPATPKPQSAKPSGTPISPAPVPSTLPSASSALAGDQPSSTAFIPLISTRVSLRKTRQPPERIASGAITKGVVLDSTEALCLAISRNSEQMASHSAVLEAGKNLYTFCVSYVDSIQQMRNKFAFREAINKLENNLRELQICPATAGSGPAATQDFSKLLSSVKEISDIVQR
Sequence (P11274 whole entry, looked up): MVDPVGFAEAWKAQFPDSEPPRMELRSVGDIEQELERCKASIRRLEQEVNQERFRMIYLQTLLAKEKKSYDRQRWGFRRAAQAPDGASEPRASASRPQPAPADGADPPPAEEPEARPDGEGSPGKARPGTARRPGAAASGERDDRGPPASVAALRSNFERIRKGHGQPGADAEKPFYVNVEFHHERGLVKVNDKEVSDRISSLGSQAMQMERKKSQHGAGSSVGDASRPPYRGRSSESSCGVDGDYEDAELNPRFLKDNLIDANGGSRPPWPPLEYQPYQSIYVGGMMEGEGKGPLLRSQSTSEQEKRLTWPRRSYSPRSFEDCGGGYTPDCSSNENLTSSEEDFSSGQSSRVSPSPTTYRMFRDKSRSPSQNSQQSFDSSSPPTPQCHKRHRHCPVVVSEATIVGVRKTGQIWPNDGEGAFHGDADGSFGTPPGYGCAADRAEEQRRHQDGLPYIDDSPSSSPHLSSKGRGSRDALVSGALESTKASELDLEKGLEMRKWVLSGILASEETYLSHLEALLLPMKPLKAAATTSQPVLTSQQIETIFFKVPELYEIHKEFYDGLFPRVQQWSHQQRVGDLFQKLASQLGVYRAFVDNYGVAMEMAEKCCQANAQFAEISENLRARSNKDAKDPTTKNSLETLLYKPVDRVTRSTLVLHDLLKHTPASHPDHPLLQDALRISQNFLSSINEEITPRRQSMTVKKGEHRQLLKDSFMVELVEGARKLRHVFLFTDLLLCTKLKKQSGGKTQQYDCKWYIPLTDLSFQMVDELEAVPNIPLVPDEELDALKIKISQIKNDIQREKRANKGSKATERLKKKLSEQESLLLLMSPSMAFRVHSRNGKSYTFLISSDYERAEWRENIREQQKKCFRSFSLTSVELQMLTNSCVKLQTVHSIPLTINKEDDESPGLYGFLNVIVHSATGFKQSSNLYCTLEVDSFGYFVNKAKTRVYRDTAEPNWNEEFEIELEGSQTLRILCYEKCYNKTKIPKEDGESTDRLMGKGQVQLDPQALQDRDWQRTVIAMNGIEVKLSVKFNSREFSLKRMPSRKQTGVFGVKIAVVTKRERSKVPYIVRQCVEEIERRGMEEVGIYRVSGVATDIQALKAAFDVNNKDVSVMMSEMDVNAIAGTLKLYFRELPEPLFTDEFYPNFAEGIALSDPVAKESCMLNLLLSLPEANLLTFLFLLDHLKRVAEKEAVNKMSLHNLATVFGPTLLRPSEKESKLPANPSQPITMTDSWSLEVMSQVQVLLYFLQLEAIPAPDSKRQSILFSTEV
Sequence (Q96SW2 whole entry, looked up): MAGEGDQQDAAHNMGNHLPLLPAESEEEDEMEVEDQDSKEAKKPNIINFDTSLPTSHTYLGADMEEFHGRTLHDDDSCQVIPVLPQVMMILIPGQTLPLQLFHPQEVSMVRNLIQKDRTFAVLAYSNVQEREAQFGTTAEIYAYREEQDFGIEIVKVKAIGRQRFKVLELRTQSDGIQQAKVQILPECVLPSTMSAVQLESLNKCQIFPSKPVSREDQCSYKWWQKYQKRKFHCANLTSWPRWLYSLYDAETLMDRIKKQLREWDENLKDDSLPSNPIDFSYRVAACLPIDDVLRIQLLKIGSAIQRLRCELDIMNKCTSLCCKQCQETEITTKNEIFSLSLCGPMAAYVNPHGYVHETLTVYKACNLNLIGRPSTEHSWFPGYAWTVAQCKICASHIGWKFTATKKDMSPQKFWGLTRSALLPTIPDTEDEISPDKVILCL
measure.name: Activity (%)

Some solved entries appear below for comparison.
## Task Please list Activity recorded for the compound O=C1CCC(N2Cc3c(SCCCN4CCN(C5CCN(c6ncc(C(=O)Nc7ccc(OC(F)(F)Cl)cc7)cc6-c6ccn[nH]6)CC5)CC4)cccc3C2=O)C(=O)N1 (stereo unspecified)
## Result 55.5

## Task For the compound O=C1CCC(N2Cc3c(OCCCCCCN4CCN(C5CCN(c6ncc(C(=O)Nc7ccc(OC(F)(F)Cl)cc7)cc6-c6ccn[nH]6)CC5)CC4)cccc3C2=O)C(=O)N1 (stereo unspecified) , report Activity.
## Result 28.8

## Task Report Activity for O=C1CCC(N2Cc3c(SCCCCCCN4CCN(c5ncc(C(=O)Nc6ccc(OC(F)(F)Cl)cc6)cc5-c5ccn[nH]5)CC4)cccc3C2=O)C(=O)N1 (stereo unspecified)
## Result 24.6

## Task Provide measured Activity value, entry: O=C1CCC(N2Cc3c(C#CCCCCCCN4CCN(C5CCN(c6ncc(C(=O)Nc7ccc(OC(F)(F)Cl)cc7)cc6-c6ccn[nH]6)CC5)CC4)cccc3C2=O)C(=O)N1 (stereo unspecified)
## Result 38.4

P. O=C1CCC(N2Cc3c(SCCCCN4CCN(C5CCN(c6ncc(C(=O)Nc7ccc(OC(F)(F)Cl)cc7)cc6-c6ccn[nH]6)CC5)CC4)cccc3C2=O)C(=O)N1 (stereo unspecified)
Q. O=C1CCC(N2Cc3c(SCCCCCCNc4ncc(C(=O)Nc5ccc(OC(F)(F)Cl)cc5)cc4-c4ccn[nH]4)cccc3C2=O)C(=O)N1 (stereo unspecified)
## Task Thinking about recorded Activity values, which is higher, P or Q ? Let me know the label of the one you choose.
## Result P

Hello, the source for this data is ChEMBL document CHEMBL5247625, in case you need it.
